Molecular target: T1, ASCC2^1-434 (human, UniProt Q9H1I8 1-434)
T1 chain: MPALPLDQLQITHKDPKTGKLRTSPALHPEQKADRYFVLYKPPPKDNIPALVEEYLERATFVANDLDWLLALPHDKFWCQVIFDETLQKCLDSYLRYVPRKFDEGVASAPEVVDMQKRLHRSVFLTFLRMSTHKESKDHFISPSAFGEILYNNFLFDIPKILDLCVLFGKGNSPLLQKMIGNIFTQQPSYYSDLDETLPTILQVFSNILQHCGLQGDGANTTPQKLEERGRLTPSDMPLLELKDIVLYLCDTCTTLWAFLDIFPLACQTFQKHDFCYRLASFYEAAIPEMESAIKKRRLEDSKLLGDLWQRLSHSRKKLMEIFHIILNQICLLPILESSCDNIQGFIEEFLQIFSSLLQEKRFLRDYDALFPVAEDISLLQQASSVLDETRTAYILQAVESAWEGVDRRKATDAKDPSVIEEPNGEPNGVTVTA
Assay: ITC
Ends that are not written are not given here.
Each entry below carries its reported Kd.

Prompt: # lookup: Kd of MALPHLTGALRSFSNVTKQDNY-NH2 [ASCC3^1-22 peptide R5H]
Response: 43.8 µM

Prompt: # lookup: Kd of MALPLLTGALRSFSNVTKQDNY-NH2 [ASCC3^1-22 peptide R5L]
Response: 15.4 µM

Prompt: # lookup: Kd of MALPCLTGALRSFSNVTKQDNY-NH2 [ASCC3^1-22 peptide R5C]
Response: 46.5 µM

Others:
Prompt: # lookup: Kd of MALPGLTGALRSFSNVTKQDNY-NH2 [ASCC3^1-22 peptide R5G]
Response: 21.6 µM
